- Experimental System: SARS-CoV-2 3CLpro (Severe acute respiratory syndrome coronavirus 2, UniProt P0DTD1)
- Test Name: biochemical
- Format: biochemical
- Test Conditions: 4 h, sheet LOPAC_screen_w_protease; primary screen with protease, 5 µM; replicate 2; read-out: Replicate_2
Structures can show the parent of a compound that is named as a salt.

{"columns": ["Compound", "inhibition at 5 µM"],
 "data": [
  ["CC(NCCc1ccc(O)cc1)C(O)c1ccc(O)cc1 (stereo not drawn) [Ritodrine hydrochloride]", "-0.126%"],
  ["CN(C)C(=O)Oc1ccc[n+](C)c1 [Pyridostigmine bromide]", "-0.737%"],
  ["O=C(O)[C@@H]1CCN1", "0.0519%"]
]}

---

Overview of recorded Replicate_2 (LOPAC_screen_w_protease) for various compounds
- Experimental System: UniProt P0DTD1
- Test Name: biochemical
- Type: biochemical
- Test Conditions: LOPAC1280 primary screen with protease, 5 µM compound, replicate 2

{"columns": ["Compound", "Replicate_2 (LOPAC_screen_w_protease)"],
 "data": [
  ["CCSC(=N)Nc1ccc(C(F)(F)F)cc1.Cl [TFPI hydrochloride]", 0.9137],
  ["CC(=O)NBr [N-Bromoacetamide]", 2.407],
  ["CN(C(=O)Cc1ccc(Cl)c(Cl)c1)C(CN1CCCC1)c1cccc(OCC(=O)O)c1.Cl (stereo not shown) [ICI 204,448 hydrochloride]", -0.04714],
  ["CC1(C)C(=O)N(CCN2CCC(C(=O)c3ccc(F)cc3)CC2)c2ccccc21.Cl [LY-310,762 hydrochloride]", 1.816],
  ["CN(C)c1cc2c(Nc3ccc4c(cnn4Cc4ccccc4)c3)ncnc2cn1 [GW2974]", 0.1722],
  ["Oc1cc(-c2ccccc2)nc2nc(Cl)ccc12", 3.097],
  ["Cc1c(CC(C)(C)C(=O)O)n(Cc2ccc(Cl)cc2)c2ccc(F)cc12 [L-655,240]", 0.9392],
  ["Cl.c1ccc2sc(C3(N4CCCCC4)CCCCC3)cc2c1 [BTCP hydrochloride]", 2.452],
  ["Br.Br.N=C(N)SCCc1cccc(CCSC(=N)N)c1 [1,3-PBIT dihydrobromide]", 1.476],
  ["Cl.c1ccc2c(N3CCNCC3)cccc2c1 [1-(1-Naphthyl)piperazine hydrochloride]", -0.9014]
]}

---

- Experimental System: SARS-CoV-2 3CLpro (Severe acute respiratory syndrome coronavirus 2, UniProt P0DTD1)
- Test Name: biochemical
- Format: biochemical
Where a name gives a salt, the structure may show the parent alone.
Overview of recorded mean (LOPAC_screen_w_protease) for various compounds

{"columns": ["Compound", "mean (LOPAC_screen_w_protease)"],
 "data": [
  ["CC(C)(C)c1cc(C=C(C#N)C#N)cc(C(C)(C)C)c1O", 2.02],
  ["NCC1(CC(=O)O)CCCCC1", 1.9821],
  ["NCCCCN [Putrescine dihydrochloride]", 2.055],
  ["CN(C)CCC=C1c2ccccc2C=Cc2ccccc21 [Cyclobenzaprine hydrochloride]", 2.047],
  ["O=C(O)CCCCCCC1C(=O)NC(=O)N1CCC(O)C1CCCCC1 (stereo not shown) [BW 245C]", 1.3595],
  ["Clc1cccc(Cl)c1N=C1NCCN1 [Clonidine hydrochloride]", 1.822],
  ["CN1C2CCC1CC(OC(c1ccccc1)c1ccc(Cl)cc1)C2.Cl (stereo not shown)", 1.536],
  ["Br.COc1ccc(-c2ccc(=N)n(CCCC(=O)O)n2)cc1", 1.408],
  ["CCN1C[C@]2(C)CC[C@H](O)[C@]34C1[C@@H](C[C@H]23)[C@@]1(O)C[C@H](OC)[C@H]2C[C@@H]4[C@@H]1[C@H]2O", 1.99],
  ["CC[C@H](CO)Nc1nc(NCc2ccccc2)c2ncn(C(C)C)c2n1", 1.3343]
]}

Where do these numbers come from? They come from paper PMC7587356.
